target: β-lactamase TEM1 (Escherichia coli); construct: The β-lactamases are isolated from bacterial strains which are resistant to penicillins and cephalosporins; endogenous in cells; host or cells: E. coli 250HT21 (natural producer; French-press lysate, 100,000 g supernatant); assay: Inhibition of isolated β-lactamase Tem-1 (Nitrocefin hydrolysis); assay type: biochemical, E.coli 250HT21; conditions: 100 μM Nitrocefin, 50 mM sodium phosphate buffer pH7.0, 37° C.
Sequence (P62593 24-286 limits assumed): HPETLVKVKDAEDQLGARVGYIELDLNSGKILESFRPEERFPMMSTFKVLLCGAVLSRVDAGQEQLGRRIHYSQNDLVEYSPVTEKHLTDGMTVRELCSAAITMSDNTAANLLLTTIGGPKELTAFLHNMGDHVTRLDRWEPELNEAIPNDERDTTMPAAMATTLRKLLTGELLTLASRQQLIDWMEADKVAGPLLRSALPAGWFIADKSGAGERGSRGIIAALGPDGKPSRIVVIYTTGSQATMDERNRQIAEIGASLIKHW
Hi! Could you tag entries with IC50 below 30 nM as label 1, and those at or above as label 0? Much appreciated.

                                   molecule    group
0  O=C(O)C[C@@H]1CCN2C[C@H]1OC2=O (relative stereo)  label 0
1  O=C(OCc1ccccc1)[C@H]1C[C@@H]2CN1C(=O)N2C(=O)c1ccccc1 (relative stereo)  label 0
2  O=C(OCc1ccccc1)C1CCC2CN1C(=O)N2OS(=O)(=O)c1cccs1 (centres unmarked) [Example 28d]  label 1
3  NC(=O)c1cccc(NC(=O)[C@H]2CC[C@@H]3CN2C(=O)N3OS(=O)(=O)[O-])c1.[Na+] (relative stereo)  label 0
4  O=C(NCc1ccccc1)[C@H]1CC[C@@H]2CN1C(=O)N2OS(=O)(=O)[O-].[Na+] (relative stereo)  label 1

query: Lab note: confirm whether the reported IC50 for this molecule is below 30 nM, equality not counting. molecule: O=C(NCc1ccncc1)[C@H]1CC[C@@H]2CN1C(=O)N2OS(=O)(=O)[O-].[Na+] (relative stereo)
result: label 1

query: Lab note: confirm whether the reported IC50 for this molecule is below 30 nM, equality not counting. molecule: O=C(c1ccccc1)N1C(=O)N2CCCC1C2 (centres unmarked)
result: label 0

query: Lab note: confirm whether the reported IC50 for this molecule is below 30 nM, equality not counting. molecule: C[C@@]12C[C@H](C(=O)OCc3ccccc3)N(C1)C(=O)N2C(=O)c1ccccc1 (relative stereo)
result: label 0

###

system: E. cloacae 293HT6 (Class C); assay: MIC, micro-dilution in liquid medium, β-lactamine with product at 5 mg/l; format: cell-based; settings: compound at 5 mg/l; Trial 9, 293HT6 Class; 24 hours at 37° C.
Value kind: MIC of Piperacillin in combination with the compound (µg/mL)
One number for each entry, in µg/mL.

Here's what some known entries look like.
                                   molecule  obs_value
0  O=C(NCCc1cccnc1)[C@H]1CC[C@@H]2CN1C(=O)N2OS(=O)(=O)[O-].[Na+] (relative stereo)         20
1  O=C(OCCc1ccncc1)[C@H]1CC[C@@H]2CN1C(=O)N2OS(=O)(=O)[O-].[Na+] (relative stereo)         10
2  NC(=O)CNC(=O)C1CCC2CN1C(=O)N2OS(=O)(=O)O (stereo not shown)        1.2
3  NC(=O)c1cccc(NC(=O)[C@H]2CC[C@@H]3CN2C(=O)N3OS(=O)(=O)[O-])c1.[Na+] (relative stereo)         20

Now for a further molecule.
query: Given the molecule NC(=O)[C@@H]1CC[C@@H]2CN1C(=O)N2OS(=O)(=O)O (relative stereo) , what is its reported MIC of Piperacillin in combination with the compound?
result: 0.6

###

Consider the following compounds; for each one, report its IC50.
target: β-lactamase P99 (Enterobacter cloacae, UniProt P05364); construct: The β-lactamases are isolated from bacterial strains which are resistant to penicillins and cephalosporins; endogenous in cells; host or cells: Enterobacter cloacae 293HT6 (natural producer; French-press lysate, 100,000 g supernatant); test: biochemical; settings: 100 μM Nitrocefin, 50 mM sodium phosphate buffer pH7.0, 37° C.; read-out: IC50 nM/P99
Sequence (P05364 21-381): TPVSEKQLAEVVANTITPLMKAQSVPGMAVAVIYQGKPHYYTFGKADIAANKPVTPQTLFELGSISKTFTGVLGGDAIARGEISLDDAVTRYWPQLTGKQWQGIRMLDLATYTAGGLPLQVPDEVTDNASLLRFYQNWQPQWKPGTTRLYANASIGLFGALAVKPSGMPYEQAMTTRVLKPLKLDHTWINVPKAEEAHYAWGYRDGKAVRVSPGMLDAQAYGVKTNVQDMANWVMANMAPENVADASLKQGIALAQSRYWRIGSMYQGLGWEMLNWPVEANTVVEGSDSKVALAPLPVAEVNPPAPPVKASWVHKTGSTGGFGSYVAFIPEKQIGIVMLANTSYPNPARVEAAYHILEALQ
One number for each entry, in nM.

                                   compound  value_kind  obs_value
0  COC1=CC2CN(C1)C(=O)N2OS(=O)(=O)O (stereo not shown) [Example 52]        IC50       4600
1  O=C(NCc1ccccc1)[C@H]1CC[C@@H]2CN1C(=O)N2OS(=O)(=O)[O-].[Na+] (relative stereo) [Example 34]        IC50         32
2  O=C(OCc1ccccc1)[C@H]1C[C@@H]2CN1C(=O)N2S(=O)(=O)c1ccccc1 (relative stereo) [Example 8]        IC50         62

Now for a further compound.
query: Given the compound O=C(OCCc1ccccn1)[C@H]1CC[C@@H]2CN1C(=O)N2OS(=O)(=O)[O-].[Na+] (relative stereo) [Example 50] , what is its reported IC50?
result: 150
